- Tested on: pERK HCT-116 (G13D)
- Experimental Details: pERK HCT-116 (G13D) ICW (4 hour)
- Assay type: cell-based
- Conditions Used: read-out: pERK HCT-116 (G13D) ICW (4 hour): Average IC50
Reported Property: IC50

The molecule listed as CNS(=O)(=O)Cc1cccc(Oc2c(C(=O)NC3CC3)c(Nc3ccc(I)cc3F)n(C)c(=O)c2C)c1 [Compound I-23] shows IC50 equal to 1 to 10 µM

* * *

- Experimental Details: Cassette pharmacokinetics studies in mice
- Format: in vivo
- Conditions Used: male, Balb/c, plasma; Mouse, PO, 5 mg/kg
Reported Property: log10 Cmax (log10 of the value in ng/mL)
Note: values are log10 of Cmax expressed in ng/mL.

Some solved cases for reference:
Compound Structure String	log10 Cmax
CNS(=O)(=O)Nc1cccc(Oc2c(C(=O)NC3CC3)c(Nc3ccc(I)cc3F)n(C)c(=O)c2C)c1OC(F)(F)F	2.89
CCNC(=O)c1c(Oc2cccc(NS(=O)(=O)NC)c2Cl)c(C)c(=O)n(C)c1Nc1ccc(I)cc1F	3.22
CCNS(=O)(=O)Nc1cccc(Oc2c(C(=O)NC3CC3)c(Nc3ccc(I)cc3F)n(C)c(=O)c2C)c1Cl	2.69
Cc1c(Oc2cccc(NS(N)(=O)=O)c2Cl)c(C(=O)NC2CC2)c(Nc2ccc(I)cc2F)n(C)c1=O	2.99
CNS(=O)(=O)Nc1ccc(Oc2c(C(=O)NC3CC3)c(Nc3ccc(I)cc3F)n(C)c(=O)c2C)cc1	2.36

For the 2 compounds below, give their log10 Cmax values.
1. CNS(=O)(=O)Nc1cccc(Oc2c(C(=O)N(C)C3CCC3)c(Nc3ccc(I)cc3F)n(C)c(=O)c2C)c1
2. CNS(=O)(=O)Nc1cccc(Oc2c(C(=O)NC3CC3)c(Nc3ccc(I)cc3F)n(C)c(=O)c2C)c1C(F)(F)F

a:
1: 1.61; 2: 3.24
